Target: active HPK1 (SignalChem M23-11G) (Homo sapiens (Human), UniProt Q92918)
Sequence (Q92918 1-346 limits assumed): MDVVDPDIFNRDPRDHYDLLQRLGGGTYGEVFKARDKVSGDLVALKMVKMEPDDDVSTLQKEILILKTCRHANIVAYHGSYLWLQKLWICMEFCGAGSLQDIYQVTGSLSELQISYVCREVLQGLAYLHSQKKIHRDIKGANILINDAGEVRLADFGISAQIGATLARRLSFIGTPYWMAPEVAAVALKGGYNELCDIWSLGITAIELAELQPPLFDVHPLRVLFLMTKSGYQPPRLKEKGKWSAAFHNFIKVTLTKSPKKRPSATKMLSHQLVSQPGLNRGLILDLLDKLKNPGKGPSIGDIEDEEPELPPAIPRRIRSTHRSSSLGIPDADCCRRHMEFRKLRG
Assay: HPK1 Kinase Binding Assay
Details: LanthaScreen tracer 222 / Eu-Anti GST antibody, one hour incubation at 25° C.
pKi: −log10 of the molar value.
# key: entry, value: pKi

Worked set:
COc1cccc(F)c1-c1nccc(C(=O)Nc2ccc3c(nc(C)n3[C@H]3CCOC3)c2N2CCC[C@H]2CN)n1 [Example 24]; ≥ 7.00
COc1cccc(F)c1-c1nccc(C(=O)Nc2ccc3c(nc(C)n3C)c2N2CCC[C@@H]2CO)n1 [Example 14]; ≥ 7.00
COc1ccc(-n2ccc3c(N4C[C@@H](N)C[C@H]4CO)c(NC(=O)c4ccnc(-c5c(F)cccc5OC)n4)ccc32)c(F)c1 [Example 45]; ≥ 7.00
COc1cccc(F)c1-c1nccc(C(=O)Nc2ccc3c(ccn3C)c2N2CCNC[C@H]2C)n1 [Example 37]; ≥ 7.00
COc1cccc(F)c1-c1nccc(C(=O)Nc2ccc3c(ccn3-c3ccnn3C)c2N2C[C@@H](N)C[C@H]2CO)n1 [Example 46]; ≥ 7.00

Entry COCCn1c(C)nc2c(N3CCC[C@H]3CN)c(NC(=O)c3ccnc(-c4c(F)cccc4OC)n3)ccc21 [Example 21] ; pKi = ≥ 7.00

# pKi (compound: N#Cc1ccccc1-c1nc2c(N3C[C@H](N)C[C@H]3CO)c(NC(=O)c3ccnc(-c4c(F)cccc4F)n3)ccc2n1C1CC1 [Example 5] ) is ≥ 7.00

Reported pKi of COc1cccc(F)c1-c1nccc(C(=O)Nc2ccc3c(nc(C)n3C)c2N2C[C@H]3C[C@@H]2CN3)n1 [Example 16] : ≥ 7.00

Just so you know, measured pKi for COc1cccc(F)c1-c1nccc(C(=O)Nc2ccc3c(ccn3C)c2N2CCC[C@@H]2CN)n1 [Example 35] came out at ≥ 7.00

Data origin, for the record: patent US11299473B2
